Experiment: viability loss in pontine glioma line – cell-based, JHH-DIPG-1, MIPE4.0, CellTiter-Glo, qHTS, dose response (AID 1347062);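 on AC50: cells exposed to compound for two days before readout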
Conditions: JHH-DIPG-1 viability, CellTiter-Glo ATP luminescence
Records with an inconclusive call do not appear. Calls of active or inactive are those of the source. Cut-off not given; nearly all actives show AC50 up to about 27 µM.
Please state which outcome applies, choosing from t for active, f for inactive

Study these solved cases before continuing.
CC(=O)O[C@H]1C[C@@H]2CC[C@@H]3[C@H](CC[C@@]4(C)[C@H]3C[C@H]([N+]3(C)CCCCC3)[C@@H]4OC(C)=O)[C@@]2(C)C[C@@H]1N1CCCCC1 | f
CN1CCC(=C2c3ccccc3CC(=O)c3sccc32)CC1 | f
COc1cc(OC)c(C(=O)CCCN2CCCC2)c(OC)c1 | f
COc1cccc2c1C(=O)c1c(O)c3c(c(O)c1C2=O)C[C@@](O)(C(=O)CO)C[C@@H]3O[C@H]1C[C@H](N)[C@H](O)[C@H](C)O1 | t
CC(C)NCC(O)COc1ccc(CCOCC2CC2)cc1 (stereo not given) | f
O=C1Nc2ccc(Cl)cc2[C@@](C#CC2CC2)(C(F)(F)F)O1 | f
Nc1nc(N)nc(-c2cc(Cl)ccc2Cl)n1 | f
COc1cnc(NS(=O)(=O)c2ccc(N)cc2)nc1 | t
Cc1cn[nH]c1 | t

Please look at the following compound next.
Incoming: Answer briefly: the call reported for Nc1ncnc2c1ncn2[C@@H]1O[C@H](CO)[C@@H](O)[C@H]1O in this assay.
Outgoing: t
